Details: 343.15 K; 101.33 kPa; Liquid; Symmetrical Wheatstone bridge
reported-metric: electrical conductivity

molecule="CCCCn1cc[n+](C)c1.F[B-](F)(F)F [1-butyl-3-methylimidazolium tetrafluoroborate]" result="1.8 S/m"
molecule=CCn1cc[n+](C)c1.O=S(=O)([N-]S(=O)(=O)C(F)(F)F)C(F)(F)F result="2.69 S/m"
molecule="CCn1cc[n+](C)c1.F[B-](F)(F)F [1-ethyl-3-methylimidazolium tetrafluoroborate]" result="4.84 S/m"
molecule="CCn1cc[n+](C)c1.N#CN=C=[N-] [1-ethyl-3-methylimidazolium dicyanamide]" result="7.34 S/m"

====

Conditions: 333.15 K; 101.33 kPa; Liquid; Capillary tube (Ostwald / Ubbelohde) method
# Lookup of reported viscosity keyed by entry
reported-metric: viscosity (mPa·s)

molecule=CCn1cc[n+](C)c1.O=S(=O)([N-]S(=O)(=O)C(F)(F)F)C(F)(F)F result_number=11.87
molecule="CCCCn1cc[n+](C)c1.F[B-](F)(F)F [1-butyl-3-methylimidazolium tetrafluoroborate]" result_number=25.11
molecule="CCn1cc[n+](C)c1.F[B-](F)(F)F [1-ethyl-3-methylimidazolium tetrafluoroborate]" result_number=12.7
molecule="CCn1cc[n+](C)c1.N#CN=C=[N-] [1-ethyl-3-methylimidazolium dicyanamide]" result_number=6.43
